# pK CuH-2L annotations
Assay Text: Potentiometric titration of peptides with CuCl2: Cu(II) binding constants and competitivity index at pH 7.4
Type: physicochemical
Condition Notes: Cu(II) species, potentiometry, 25 °C, I=0.1 (KNO3)
Where a SMILES comes first, the peptide text is derived from it. [ ]: non-standard residue; d: D form. βAla = NCCC(=O)O
# answer = number (no unit)

These solved cases illustrate the format of a correct answer.
Compound | Quantitative Readout
NCC(=O)NCCC(=O)N[C@@H](Cc1c[nH]cn1)C(=O)NCC(=O)N[C@@H](CO)C(=O)N[C@@H](CO)C(N)=O [Peptide c] (H-G[βAla]HGSS-NH2) | 5.65
NCCCC[C@H](NC(=O)[C@H](Cc1c[nH]cn1)NC(=O)CCNC(=O)[C@@H](N)Cc1c[nH]c2ccccc12)C(=O)N[C@@H](CO)C(=O)N[C@@H](CO)C(N)=O [g] (H-W[βAla]HKSS-NH2) | 10.10
NCCCC[C@H](N)C(=O)NCCC(=O)N[C@@H](Cc1c[nH]cn1)C(=O)N[C@@H](Cc1c[nH]c2ccccc12)C(=O)N[C@@H](CO)C(=O)N[C@@H](CO)C(N)=O [f] (H-K[βAla]HWSS-NH2) | 10.12
NC(=O)[C@H](CO)NC(=O)[C@H](CO)NC(=O)[C@H](Cc1c[nH]c2ccccc12)NC(=O)[C@H](Cc1c[nH]cn1)NC(=O)CCNC(=O)[C@@H](N)Cc1c[nH]c2ccccc12 [e] (H-W[βAla]HWSS-NH2) | 4.92

QUERY: Which pK CuH-2L is reported for this compound? NCCCC[C@H](NC(=O)[C@H](Cc1c[nH]cn1)NC(=O)CCNC(=O)[C@@H](N)CCCCN)C(=O)N[C@@H](CO)C(=O)N[C@@H](CO)C(N)=O [d] (H-K[βAla]HKSS-NH2)
RESULT: 10.41

====

System: SW480 (colon adenocarcinoma)
Assay Text: Antiproliferative activity, sulforhodamine B (SRB) assay
Format: cell-based, human
Condition Notes: exposure 72 h, 3-fold dilutions, α-MEM + 5% fetal calf serum, 37 °C, mean of at least three independent experiments
pIC50: −log10 of the molar value.
Property Measured: pIC50

QUERY: Using the record for [Cl][Cu][Cl] [CuCl2, reference compound] , report its pIC50.
RESULT: < 4.15
